The entries below come with measured SGCB cell-surface expression functional score (log10) values attached.
B1: library; numbered along this chain (parent)
chain: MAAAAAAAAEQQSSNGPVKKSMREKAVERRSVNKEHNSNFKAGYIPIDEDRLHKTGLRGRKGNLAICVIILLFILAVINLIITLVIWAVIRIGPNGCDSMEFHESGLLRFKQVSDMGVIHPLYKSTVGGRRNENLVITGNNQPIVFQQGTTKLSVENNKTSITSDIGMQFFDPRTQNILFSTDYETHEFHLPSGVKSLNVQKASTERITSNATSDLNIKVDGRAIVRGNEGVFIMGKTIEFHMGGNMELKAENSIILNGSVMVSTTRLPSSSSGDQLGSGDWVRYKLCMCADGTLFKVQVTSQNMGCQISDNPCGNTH

# Variants of: B1
# Assay comment: SGCB cell-surface expression functional score (HA stain, bin4 vs bin1, normalised to synonymous) (log10 ratio); higher = more cell-surface SGCB (functional)
// no unit string in output, number only

[[record]]
mutation_descriptor = "A9L"
result = 0.19

[[record]]
mutation_descriptor = "K159F"
result = -0.25

[[record]]
mutation_descriptor = "S14N"
result = 0.61


Enquiry: Supply measured SGCB cell-surface expression functional score (log10) of `N132K` in your reply.
Return: -0.36

Enquiry: Please list SGCB cell-surface expression functional score (log10) recorded for the variant `I92R`
Return: -1.46

Enquiry: Respond only with SGCB cell-surface expression functional score (log10) recorded for `S310Y`
Return: 0.49

Enquiry: Name the recorded SGCB cell-surface expression functional score (log10) of the variant listed here: `T160L`
Return: 0.17

Enquiry: Let me know recorded SGCB cell-surface expression functional score (log10) for `T138V` , thanks.
Return: 0.19
